Give measured inhibition for each item. Keep answers brief.
Tested on: Bacteria
protocolSummary: Inhibition of bacterial NDM-1 (unknown origin) expressed in Escherichia coli EXPRESS BL21(DE3) assessed as inhibition constant by measuring rate of substrate hydrolysis at 100 uM by UV-visible spectrophotometry relative to control

>  <compound>
O=C(O)[C@H](CCCn1c(-c2ccccc2)n[nH]c1=S)NCc1c[nH]cn1

>  <dataValue>
35%

$$$$

# batch size: 3; output inhibition per entry
1. Cn1cncc1CN[C@@H](CCCn1c(-c2ccccc2)n[nH]c1=S)C(=O)O
2. O=C(O)[C@H](CCCn1c(-c2ccccc2)n[nH]c1=S)NCc1c[nH]c2ccccc12
3. O=C(O)[C@H](CCCn1c(-c2ccccc2)n[nH]c1=S)NCc1cncs1

["38%", "< 30%", "< 30%"]

# batch size: 5; output inhibition per entry
1. O=C(O)[C@H](CCCn1c(-c2ccccc2)n[nH]c1=S)N(Cc1cn[nH]c1)Cc1cn[nH]c1
2. O=C(O)[C@H](CCCn1c(-c2ccccc2)n[nH]c1=S)NCc1ccccc1
3. O=C(O)[C@H](CCCn1c(-c2ccccc2)n[nH]c1=S)N(Cc1cn[nH]c1)Cc1c[nH]cn1
4. O=C(O)[C@H](CCCn1c(-c2ccccc2)n[nH]c1=S)NCc1cscn1
5. Cc1ccc(C(C)N[C@@H](CCCn2c(-c3ccccc3)n[nH]c2=S)C(=O)O)cc1 (some centres undefined)

1. < 30%
2. < 30%
3. 37%
4. < 30%
5. < 30%

----------
protocolSummary: Metabolic stability in CD-1 mouse microsomes assessed as intrinsic clearance at 37 degC by LC-MS/MS analysis
Format: ADME, Microsome
measurementSetup: CD-1, mouse
measurementType: microsomal CLint (µL/min/mg)
Answers are plain numbers, in µL/min/mg.

Illustrative cases are given below, each with its answer.
>  <smilesRecord>
O=C(O)[C@H](CCn1c(-c2ccccc2)n[nH]c1=S)N(Cc1c[nH]cn1)Cc1c[nH]cn1

>  <unitAbbrev>
µL/min/mg

>  <microsomal CLint>
10.6

$$$$
>  <smilesRecord>
Cc1[nH]cnc1CN(Cc1c[nH]cn1)[C@@H](CCCn1c(-c2ccccc2)n[nH]c1=S)C(=O)O

>  <unitAbbrev>
µL/min/mg

>  <microsomal CLint>
5.5

$$$$

Requested read-out: microsomal CLint. Entry: O=C(O)[C@H](CCCn1c(-c2ccccc2)n[nH]c1=S)N(Cc1ccccn1)Cc1ccccn1 16.5

----------
Tested on: Bacteria
protocolSummary: Inhibition of bacterial IMP-1 (unknown origin) expressed in Escherichia coli EXPRESS BL21(DE3) assessed as inhibition constant by measuring rate of substrate hydrolysis at 100 uM by UV-visible spectrophotometry relative to control
measurementType: inhibition

Illustrative cases are given below, each with its answer.
>  <molecule>
O=C(O)[C@H](CCCn1c(-c2ccccc2)n[nH]c1=S)N(Cc1cncs1)Cc1cncs1

>  <inhibition>
< 30%

$$$$
>  <molecule>
O=C(O)[C@H](CCCn1c(-c2ccccc2)n[nH]c1=S)NCc1cccc(O)c1O

>  <inhibition>
32%

$$$$
>  <molecule>
O=C(O)[C@H](CCCn1c(-c2ccccc2)n[nH]c1=S)NCc1ccccc1

>  <inhibition>
< 30%

$$$$
>  <molecule>
O=C(O)[C@H](CCCn1c(-c2ccccc2)n[nH]c1=S)N(Cc1cn[nH]c1)Cc1c[nH]cn1

>  <inhibition>
34%

$$$$
>  <molecule>
O=C(O)[C@H](CCCn1c(-c2cccc(-c3ccccc3)c2)n[nH]c1=S)N(Cc1c[nH]cn1)Cc1c[nH]cn1

>  <inhibition>
69%

$$$$
>  <molecule>
O=C(O)[C@H](CCCn1c(-c2ccccc2)n[nH]c1=S)N(Cc1c[nH]cn1)Cc1c[nH]cn1

>  <inhibition>
40%

$$$$

# batch size: 5; output inhibition per entry
1. O=C(O)[C@H](CCCn1c(C2CCCCC2)n[nH]c1=S)N(Cc1c[nH]cn1)Cc1c[nH]cn1
2. Cc1[nH]cnc1CN(Cc1nc[nH]c1C)[C@@H](CCCn1c(-c2ccccc2)n[nH]c1=S)C(=O)O
3. O=C(O)[C@H](CCCn1c(-c2ccccc2)n[nH]c1=S)N(Cc1c[nH]cn1)Cc1ncc[nH]1
4. O=C(O)[C@H](CCCn1c(-c2ccccc2)n[nH]c1=S)N(Cc1ncc[nH]1)Cc1ncc[nH]1
5. Cc1ccc(C(C)N[C@@H](CCCn2c(-c3ccccc3)n[nH]c2=S)C(=O)O)cc1 (stereo partly drawn)

1. 48%
2. 57%
3. 49%
4. 61%
5. < 30%

# batch size: 3; output inhibition per entry
1. O=C(O)[C@H](CCCCn1c(-c2ccccc2)n[nH]c1=S)NCc1c[nH]cn1
2. S=c1[nH]nc(-c2ccccc2)n1CCCCN(Cc1c[nH]cn1)Cc1c[nH]cn1
3. O=C(O)[C@H](CCCn1c(-c2ccccc2)n[nH]c1=S)N(Cc1ccccc1)Cc1c[nH]cn1

1: 44%; 2: 34%; 3: 45%

# batch size: 2; output inhibition per entry
1. Cc1[nH]cnc1CN[C@@H](CCCn1c(-c2ccccc2)n[nH]c1=S)C(=O)O
2. O=C(O)[C@H](CCCn1c(-c2ccccc2)n[nH]c1=S)N(Cc1ccccn1)Cc1ccccn1

< 30%
< 30%

# batch size: 2; output inhibition per entry
1. O=C(O)[C@H](CCCn1c(-c2ccccc2)n[nH]c1=S)N(Cc1cccnc1)Cc1cccnc1
2. O=C(O)[C@H](CCCn1c(-c2ccccc2)n[nH]c1=S)NCc1cncs1

1. < 30%
2. < 30%
